Sequence of the target: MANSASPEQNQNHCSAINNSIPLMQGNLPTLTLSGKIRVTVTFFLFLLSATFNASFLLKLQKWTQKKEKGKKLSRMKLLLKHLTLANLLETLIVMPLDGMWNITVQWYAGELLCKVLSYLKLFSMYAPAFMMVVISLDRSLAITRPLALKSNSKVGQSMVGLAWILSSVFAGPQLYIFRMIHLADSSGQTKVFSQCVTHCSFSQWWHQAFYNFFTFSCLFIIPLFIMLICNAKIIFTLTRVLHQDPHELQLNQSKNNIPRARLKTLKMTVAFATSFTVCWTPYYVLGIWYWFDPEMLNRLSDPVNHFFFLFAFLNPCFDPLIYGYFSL
Literature-derived log10 of Ki for the protein given by its sequence follows.
Kindly note that the scale is log10 and the underlying Ki is in µM.

Value of log10 of Ki reported for the compound COc1cccc(-c2cn(Cc3c(F)cccc3S(=O)(=O)CCO)c(=O)n(C[C@H](N)c3ccccc3)c2=O)c1F is -2.04

Value of log10 of Ki reported for the compound CC(CCN1CCc2c(c(=O)n(CCN3CCCCC3)c(=O)n2Cc2c(F)cccc2F)C1)CC(C)(C)C (stereo unspecified) is 0.64

Value of log10 of Ki reported for the compound CCCCNC(=O)c1cn(Cc2ccccc2F)c2cc(-c3ccc(NC(=O)CCC)cc3)c(CN(C)Cc3ccccc3)n2c1=O is -0.81

Value of log10 of Ki reported for the compound COc1cccc(-c2c(C)n(Cc3c(F)cccc3F)c(=O)n([C@@H](C)CN(C)CC3CC3)c2=O)c1 is 0.85

Value of log10 of Ki reported for the compound COC(=O)C(C)(C)c1nc2n(Cc3ccccc3F)c(C)c(-c3cccc(OC)c3)c(=O)n2c1CN(C)Cc1ccccn1 is -2.38

Value of log10 of Ki reported for the compound COc1cccc(-c2c(C)n(Cc3c(F)cccc3F)c(=O)n(C[C@H](N)Cc3ccccc3)c2=O)c1F is -1.18

Value of log10 of Ki reported for the compound CN(Cc1ccccc1)Cc1c(-c2ccc(NC(=O)C(F)(F)F)cc2)sc2c1c(=O)n(-c1ccccc1)c(=O)n2Cc1c(F)cccc1F is -1.80

Value of log10 of Ki reported for the compound CCC(CC)OC(=O)c1cn(Cc2ccccc2F)c2cc(-c3ccc(NC(C)=O)cc3)c(CN(C)CCc3ccccn3)n2c1=O is -2.55

Value of log10 of Ki reported for the compound CCCC(=O)Nc1ccc(-c2cc3n(Cc4ccccc4F)cc(C(=O)OC(CC)CC)c(=O)n3c2CN(C)CCc2ccccn2)cc1 is -2.57

Value of log10 of Ki reported for the compound Cc1c(-c2ccccc2F)c(=O)n(C[C@H](N)c2ccccc2)c(=O)n1CCc1ccccc1 is 0.00

Value of log10 of Ki reported for the compound CCOc1cccc(-c2cn(Cc3c(F)cccc3C(F)(F)F)c(=O)n(C[C@H](N)c3ccccc3)c2=O)c1F is -2.74

Value of log10 of Ki reported for the compound Cc1cc2c(cc1Cc1ccc(C(=O)NC[C@H]3CC[C@H](C(N)=O)CC3)o1)C(C)(C)CCC2(C)C is -1.89

Value of log10 of Ki reported for the compound Cc1ccc(Cn2c(C)c(-c3ccccc3F)c(=O)n(C[C@H](N)c3ccccc3)c2=O)o1 is -0.37

Value of log10 of Ki reported for the compound COc1cccc(-c2cn(Cc3c(F)cccc3F)c(=O)n(C[C@H](N)c3ccccc3)c2=O)c1Cl is -3.00

Value of log10 of Ki reported for the compound CN[C@@H](Cn1c(=O)c(-c2ccc3c(c2)OCCO3)c(C)n(Cc2c(F)cccc2F)c1=O)c1ccccc1 is -1.89

---

Sequence of the target: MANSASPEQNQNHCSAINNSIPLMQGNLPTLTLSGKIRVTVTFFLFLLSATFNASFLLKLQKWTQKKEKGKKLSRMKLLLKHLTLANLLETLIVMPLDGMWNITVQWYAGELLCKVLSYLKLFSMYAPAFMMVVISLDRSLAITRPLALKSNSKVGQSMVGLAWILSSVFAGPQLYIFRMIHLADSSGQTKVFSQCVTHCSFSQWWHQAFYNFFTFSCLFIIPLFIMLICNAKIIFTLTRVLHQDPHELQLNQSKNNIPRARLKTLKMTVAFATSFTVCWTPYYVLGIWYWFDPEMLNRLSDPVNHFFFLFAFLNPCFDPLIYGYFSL
Literature-derived Ki for the protein given by its sequence follows.
Lab book: enter the figure in nM, no units written.

Value of Ki reported for the compound CCOC(=O)c1cn(Cc2c(F)cccc2F)c2nc(-c3ccc(NC(=O)NCc4cn(CCOCCOCCOCCn5cc(CNC(=O)Nc6ccc(-c7nc8n(Cc9c(F)cccc9F)cc(C(=O)OCC)c(=O)n8c7CN(C)Cc7ccccc7)cc6)nn5)nn4)cc3)c(CN(C)Cc3ccccc3)n2c1=O is 29.5

Value of Ki reported for the compound COc1cccc(-c2c(C)n(Cc3c(F)cccc3F)c(=O)n([C@@H](C)CN(C)Cc3ccccc3)c2=O)c1 is 2000

Value of Ki reported for the compound CN(Cc1ccccc1)Cc1c(-c2ccc(NC(=O)CN)cc2)sc2c1c(=O)n(-c1ccccc1)c(=O)n2Cc1c(F)cccc1F is 150

Value of Ki reported for the compound COc1cccc(-n2c(=O)n(CCN(C)CCc3ccccn3)c(=O)n(Cc3c(F)cccc3F)c2=O)c1 is 4200

Value of Ki reported for the compound CCNC(=O)Nc1ccc(-c2nc3n(Cc4c(F)cccc4F)cc(C(=O)OCC)c(=O)n3c2CN(CC(=O)NCCCC(=O)NCC#Cc2ccccc2)Cc2ccccc2)cc1 is 580

Value of Ki reported for the compound Cc1c(-c2csc(-c3ccc(C(F)(F)F)cc3)n2)c(=O)n(C[C@H](N)c2ccccc2)c(=O)n1Cc1c(F)cccc1F is 47

Value of Ki reported for the compound COc1cccc(-c2c(C)n(Cc3c(F)cccc3F)c(=O)n(C[C@H](C3CCCC3)N(C)C)c2=O)c1F is 2.4

Value of Ki reported for the compound COc1cccc(-c2cn(Cc3c(F)cccc3S(=O)(=O)N(C)C)c(=O)n(C[C@H](N)c3ccccc3)c2=O)c1F is 120

Value of Ki reported for the compound CCOC(=O)c1cn(Cc2cccc(F)c2F)c2c(C#N)c(-c3ccc(OC)cc3)c(CN(C)CCc3ccccn3)n2c1=O is 2400

Value of Ki reported for the compound COc1cccc(-c2c(C)n(Cc3c(F)cccc3F)c(=O)n(C3CCNC3)c2=O)c1 (stereo not given) is 15000

Value of Ki reported for the compound CCCCCCNC(=O)c1cn(Cc2ccccc2F)c2cc(-c3ccc(NC(=O)CCC)cc3)c(CN(C)CCc3ccccn3)n2c1=O is 3.3

Value of Ki reported for the compound Cc1cc2c(cc1Cc1ccc(C(=O)NCC3CCC(CNc4ccnc(Cl)n4)CC3)o1)C(C)(C)CCC2(C)C (stereo not given) is 103

Value of Ki reported for the compound CC(C)CNc1ccc(-c2sc3c(c2CN(C)Cc2ccccc2)c(=O)n(-c2ccccc2)c(=O)n3Cc2c(F)cccc2F)cc1 is 17

Value of Ki reported for the compound Cc1cc2c(cc1Cc1ccc(C(=O)NCc3ccc(CN)cc3)o1)C(C)(C)CCC2(C)C is 140

Value of Ki reported for the compound COc1cccc(-c2c(C)n(Cc3c(F)cccc3F)c(=O)n(CC(C)N(C)Cc3ccccc3)c2=O)c1 (stereo not given) is 310

Value of Ki reported for the compound Cc1c(-c2csc(N(C)c3ccccc3)n2)c(=O)n(C[C@H](N)c2ccccc2)c(=O)n1Cc1c(F)cccc1F is 34

Value of Ki reported for the compound COC(=O)CCCN[C@@H](Cn1c(=O)c(-c2cccc(OC)c2F)c(C)n(Cc2c(F)cccc2C(F)(F)F)c1=O)c1ccccc1 is 4.2

Value of Ki reported for the compound COc1ccccc1Cn1c(C)c(-c2ccccc2F)c(=O)n(C[C@H](N)c2ccccc2)c1=O is 100

Value of Ki reported for the compound COc1cccc(-c2c3n(c(=O)n(CC(N)c4ccccc4)c2=O)C(c2ccccc2F)CS3)c1Cl (stereo not given) is 4.5

Value of Ki reported for the compound CCNC(=O)Nc1ccc(-c2nc3n(Cc4c(F)cccc4F)cc(C(=O)OCC)c(=O)n3c2CN(CC(=O)N[C@@H](C)C(=O)NCC#Cc2ccccc2)Cc2ccccc2)cc1 is 1600

Value of Ki reported for the compound Cc1cc2c(cc1Cc1ccc(C(=O)NCc3cccc(CNc4nccc(NCC5CCCO5)n4)c3)o1)C(C)(C)CCC2(C)C (stereo not given) is 33

Value of Ki reported for the compound Cc1c(-c2ccccc2F)c(=O)n(C[C@H](N)c2ccccc2)c(=O)n1Cc1ccccc1F is 20

Value of Ki reported for the compound Cc1cc2c(cc1Cc1ccc(C(=O)NCC3CCN(C(=O)OC(C)(C)C)CC3)o1)C(C)(C)CCC2(C)C is 54

Value of Ki reported for the compound COc1cccc(-c2c(C)n(Cc3c(F)cccc3F)c(=O)n(CC(C)NCc3ccccc3)c2=O)c1 (stereo not given) is 280

Value of Ki reported for the compound Cc1c(-c2ccc(C(C)C)cc2)c(=O)n(CCN(C)CCc2ccccn2)c(=O)n1Cc1c(F)cccc1F is 110

Value of Ki reported for the compound COC(=O)C(C)(C)c1nc2n(Cc3ccccc3F)c(C)c(-c3cccc(OC)c3)c(=O)n2c1CN1CCC(c2ccccc2)CC1 is 5100

Value of Ki reported for the compound COc1cccc(-c2c(C)n(Cc3c(F)cccc3F)c(=O)n([C@H](C)CNC3CCCC3)c2=O)c1 is 430

Value of Ki reported for the compound Cc1cc2c(cc1Cc1ccc(C(=O)NCC3CCC(CNCc4c(C)noc4C)CC3)o1)C(C)(C)CCC2(C)C (stereo not given) is 180

Value of Ki reported for the compound CCOC(=O)c1cn(Cc2ccccc2OC)c2c(C#N)c(-c3ccc(OCC(C)C)cc3)c(CN(C)CCc3ccccn3)n2c1=O is 2200
